biological target: Beta-3 adrenergic receptor (Homo sapiens, UniProt P13945); test: DRUGMATRIX: Adrenergic beta3 radioligand binding (ligand: [125I] Cyanopindolol); assay type: cell membranes, Membrane; settings: hek293; Not Active = under 50% inhibition at 10 µM
Sequence (P13945 whole entry): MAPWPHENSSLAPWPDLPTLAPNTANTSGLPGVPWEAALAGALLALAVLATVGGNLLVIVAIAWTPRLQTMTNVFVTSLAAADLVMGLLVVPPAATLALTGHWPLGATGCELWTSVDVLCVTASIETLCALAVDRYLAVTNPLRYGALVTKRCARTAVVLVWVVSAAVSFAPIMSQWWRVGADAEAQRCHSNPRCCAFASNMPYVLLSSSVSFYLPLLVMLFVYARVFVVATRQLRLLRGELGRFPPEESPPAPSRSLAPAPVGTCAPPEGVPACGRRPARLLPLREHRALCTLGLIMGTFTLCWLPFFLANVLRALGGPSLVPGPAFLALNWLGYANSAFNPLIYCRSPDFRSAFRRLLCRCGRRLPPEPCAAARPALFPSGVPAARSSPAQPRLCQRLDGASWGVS
MEASURED METRIC: IC50

[[record]]
sample_smiles = "CC(=O)N[C@@H]1[C@H](Oc2c3cc4cc2Oc2ccc(cc2Cl)[C@@H](O[C@@H]2O[C@@H](CO)[C@@H](O)[C@H](O)[C@@H]2NC(C)=O)[C@@H]2NC(=O)[C@H](NC(=O)[C@@H]4NC(=O)[C@H]4NC(=O)[C@@H](Cc5ccc(c(Cl)c5)O3)NC(=O)[C@H](N)c3ccc(O)c(c3)Oc3cc(O)cc4c3)c3ccc(O)c(c3)-c3c(O[C@H]4O[C@H](CO)[C@@H](O)[C@@H](O)[C@@H]4O)cc(O)cc3[C@@H](C(=O)O)NC2=O)O[C@@H](CO)[C@@H](O)[C@@H]1O"
obs_value = "Not Active"

[[record]]
sample_smiles = "CNC(=C[N+](=O)[O-])NCCSCc1ccc(CN(C)C)o1"
obs_value = "Not Active"


Reference source for all entries: ChEMBL document CHEMBL1909046
